testDescription: molar heat capacity at constant pressure
reportedConditions: 343.15 K; 101.33 kPa; Crystal
Quick list: molar heat capacity at constant pressure per entry.
Numeric only. Scale: J/K/mol

# count of solved cases: 5
>>> print(df.to_string())
                                   compound  datavalue
0  Cn1ccc(=O)n(C)c1=O [1,3-dimethyl-2,4-(1H,3H)-pyrimidinedione]      206.8
1  Oc1ncc(Cl)c(O)n1 [5-chloro-2,4-pyrimidinedione]        157
2  Cc1c(C)n(C)c(=O)n(C)c1=O [2,4(1H,3H)-pyrimidinedione, 1,3,5,6-tetramethyl-]      291.5
3  CCc1cn(C)c(=O)n(C)c1=O [2,4(1H,3H)-pyrimidinedione, 5-ethyl-1,3-dimethyl-]      291.1
4  Cc1cc(=O)n(C)c(=O)[nH]1 [3,6-dimethyluracil]        209

Ask: Name the recorded molar heat capacity at constant pressure of the compound listed here: Cn1c(=O)cc[nH]c1=O [uracil, 3-methyl-]
Result: 260.2

Ask: Name the recorded molar heat capacity at constant pressure of the compound listed here: Cc1cc(=O)n(C)c(=O)n1C [1,3,6-trimethyl-2,4(1H,3H)-pyrimidinedione]
Result: 239.6

Ask: Name the recorded molar heat capacity at constant pressure of the compound listed here: Cn1c2c(c(=O)n(C)c1=O)CCCCC2
Result: 367.3

Ask: Name the recorded molar heat capacity at constant pressure of the compound listed here: O=c1[nH]cc(F)c(=O)[nH]1 [5-fluoro-2,4(1H,3H)-pyrimidinedione]
Result: 153.8

Ask: Name the recorded molar heat capacity at constant pressure of the compound listed here: O=c1cc(Cl)[nH]c(=O)[nH]1 [6-chlorouracil]
Result: 147.9

Ask: Name the recorded molar heat capacity at constant pressure of the compound listed here: O=c1[nH]cc(I)c(=O)[nH]1 [5-iodouracil]
Result: 177.5

Ask: Name the recorded molar heat capacity at constant pressure of the compound listed here: Cc1c[nH]c(=O)[nH]c1=O [thymine]
Result: 205.9

Ask: Name the recorded molar heat capacity at constant pressure of the compound listed here: O=c1cc[nH]c(=O)[nH]1 [2,4(1H,3H)-pyrimidinedione]
Result: 157.4

Cited source: the NIST ThermoML archive (doi:10.1021/je060257y)
